This section presents variants with their documented SGCB cell-surface expression functional score (log10) values.
B1: library; numbered along this chain (parent)
chain: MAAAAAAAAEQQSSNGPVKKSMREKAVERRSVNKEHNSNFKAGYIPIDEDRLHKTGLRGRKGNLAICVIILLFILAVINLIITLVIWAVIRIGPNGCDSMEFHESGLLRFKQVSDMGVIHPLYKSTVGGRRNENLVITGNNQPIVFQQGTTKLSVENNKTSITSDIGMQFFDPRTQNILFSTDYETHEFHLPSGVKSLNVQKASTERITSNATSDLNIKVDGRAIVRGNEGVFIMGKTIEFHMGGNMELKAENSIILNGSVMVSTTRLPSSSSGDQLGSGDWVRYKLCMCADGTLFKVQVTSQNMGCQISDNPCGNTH

variants of: B1; test: SGCB cell-surface expression functional score (HA stain, bin4 vs bin1, normalised to synonymous) (log10 ratio); higher = more cell-surface SGCB (functional)
ASSAY_READOUT: SGCB cell-surface expression functional score (log10)

{"columns": ["MUTATION_NOTATION", "MEASUREMENT"],
 "data": [
  ["E206F", 0.19],
  ["T238F", 0.86],
  ["S21D", 0.33],
  ["S273R", -0.14],
  ["N39V", 0.44],
  ["H103R", 0.14],
  ["C307M", -0.59],
  ["I166G", -0.41],
  ["N158V", -0.44],
  ["M243I", 0.18],
  ["L249E", -0.69],
  ["Q299S", 0.08],
  ["D221F", 1],
  ["M116S", -1.38],
  ["A4I", 0.3],
  ["V226Y", -0.87],
  ["L122P", -1.07],
  ["S105A", -0.09],
  ["D281K", 0.25],
  ["N141G", -0.3],
  ["I74M", -0.6],
  ["Q176A", 0.1]
]}
